target: HIV-1 gp41 (JRFL strain) (HIV-1 JRFL); test: cell-based or functional assay
Bridge positions count the residues as written; N and C are the ends. Square brackets hold non-standard residues; d marks the D form. Ends that are not written are not given here. I, II: the chains in the order shown.
Listing of entries alongside the reported IC50 (JRFL), pseudovirion entry.
Property: IC50 (JRFL), pseudovirion entry (nM)

>>> obs_value("C5C(PIE7-GK)3 (disulfide I:3-I:12, II:3-II:12 (inferred); also: trimer: two chain 1 copies joined via C-terminal Lys by PEG5 spacers to the C-terminal Lys of central chain 2) peptide 1: G[dA][dC][dD][dY][dP][dE][dW][dQ][dW][dL][dC][dA][dA]G[dK] peptide 2: G[dA][dC][dD][dY][dP][dE][dW][dQ][dW][dL][dC][dA][dA]G[dK][dK]")
6.73
>>> obs_value("[dK]G[dA][dC][dD][dY][dP][dE][dW][dQ][dW][dL][dC][dA][dA] (disulfide 4-13 (inferred); also: dimer joined N- to C-terminus by PEG5 spacer) [N5C(PIE7)2]")
300
>>> obs_value("C0C(PIE7-GK)3 (disulfide I:3-I:12, II:3-II:12 (inferred); also: trimer: two chain 1 copies joined via C-terminal Lys by zero length spacers to the C-terminal Lys of central chain 2) peptide 1: G[dA][dC][dD][dY][dP][dE][dW][dQ][dW][dL][dC][dA][dA]G[dK] peptide 2: G[dA][dC][dD][dY][dP][dE][dW][dQ][dW][dL][dC][dA][dA]G[dK][dK]")
16.1
>>> obs_value("Ac-[dK]G[dA][dC][dD][dY][dP][dE][dW][dQ][dW][dL][dC][dA][dA]-NH2 (disulfide 4-13 (inferred); also: dimer: N-terminal Lys of both peptides joined by Bis-dPEG9 NHS ester crosslinker) [PEG-(PIE7)2]")
2300
>>> obs_value("[dH][dP][dC][dD][dY][dP][dE][dW][dQ][dW][dL][dC][dE][dL]G[dK] (disulfide 3-12 (inferred); also: dimer joined C- to C-terminus by PEG5 spacer) [C5C(PIE12)2]")
14.2
>>> obs_value("[dK]G[dA][dC][dD][dY][dP][dE][dW][dQ][dW][dL][dC][dA][dA] (disulfide 4-13 (inferred); also: dimer joined N- to N-terminus by zero length spacer) [N0N(PIE7)2]")
1090
